Source listed as patent US20100055169A1.

# TEST: RiboGreen assay of siRNA encapsulation efficiency, in vitro formulations of Lipid-Based Particles
# Format: physicochemical
# EXPERIMENTAL_CONDITIONS: in vitro formulation b: Cationic lipid/PEG-cholesterol/DSPC/Chol 45/10/15/30 wt %, lipid:siRNA 25:1
READOUT: % Encapsulation Efficiency (%)

COMPOUND: CCCCC/C=C\C/C=C\CCCCCCCCOCC(CCN(C)CCN(C)C)OCCCCCCCC/C=C\C/C=C\CCCCC (centres unmarked)
RECORDED_MEASUREMENT: 88.3
//
COMPOUND: CCCCC/C=C\C/C=C\C/C=C\C/C=C\CCCC(=O)OCC(CCN1CCCC1)OC(=O)CCC/C=C\C/C=C\C/C=C\C/C=C\CCCCC (centres unmarked)
RECORDED_MEASUREMENT: 83.5
//
COMPOUND: CC/C=C\C/C=C\C/C=C\CCCCCCCCOCC(CCN1CCCC1)OCCCCCCCC/C=C\C/C=C\C/C=C\CC (centres unmarked)
RECORDED_MEASUREMENT: 98
//
COMPOUND: CCCCC/C=C\C/C=C\CCCCCCCCOCC(CCN1CCC(N(C)C)C1)OCCCCCCCC/C=C\C/C=C\CCCCC (centres unmarked)
RECORDED_MEASUREMENT: 86.2
//
COMPOUND: CCCCC/C=C\C/C=C\CCCCCCCCOCC(CCNCCCn1ccnc1)OCCCCCCCC/C=C\C/C=C\CCCCC (centres unmarked)
RECORDED_MEASUREMENT: 98
